Examples of compounds with documented Fik Kinase %Inhibition follow.
- Target Of Assay: FLK-1 receptor (Mus musculus, UniProt P35918)
- Construct: expressed in transfected cells; host or cells: NIH3T3 C7#3
- Sequence (P35918 20-1345): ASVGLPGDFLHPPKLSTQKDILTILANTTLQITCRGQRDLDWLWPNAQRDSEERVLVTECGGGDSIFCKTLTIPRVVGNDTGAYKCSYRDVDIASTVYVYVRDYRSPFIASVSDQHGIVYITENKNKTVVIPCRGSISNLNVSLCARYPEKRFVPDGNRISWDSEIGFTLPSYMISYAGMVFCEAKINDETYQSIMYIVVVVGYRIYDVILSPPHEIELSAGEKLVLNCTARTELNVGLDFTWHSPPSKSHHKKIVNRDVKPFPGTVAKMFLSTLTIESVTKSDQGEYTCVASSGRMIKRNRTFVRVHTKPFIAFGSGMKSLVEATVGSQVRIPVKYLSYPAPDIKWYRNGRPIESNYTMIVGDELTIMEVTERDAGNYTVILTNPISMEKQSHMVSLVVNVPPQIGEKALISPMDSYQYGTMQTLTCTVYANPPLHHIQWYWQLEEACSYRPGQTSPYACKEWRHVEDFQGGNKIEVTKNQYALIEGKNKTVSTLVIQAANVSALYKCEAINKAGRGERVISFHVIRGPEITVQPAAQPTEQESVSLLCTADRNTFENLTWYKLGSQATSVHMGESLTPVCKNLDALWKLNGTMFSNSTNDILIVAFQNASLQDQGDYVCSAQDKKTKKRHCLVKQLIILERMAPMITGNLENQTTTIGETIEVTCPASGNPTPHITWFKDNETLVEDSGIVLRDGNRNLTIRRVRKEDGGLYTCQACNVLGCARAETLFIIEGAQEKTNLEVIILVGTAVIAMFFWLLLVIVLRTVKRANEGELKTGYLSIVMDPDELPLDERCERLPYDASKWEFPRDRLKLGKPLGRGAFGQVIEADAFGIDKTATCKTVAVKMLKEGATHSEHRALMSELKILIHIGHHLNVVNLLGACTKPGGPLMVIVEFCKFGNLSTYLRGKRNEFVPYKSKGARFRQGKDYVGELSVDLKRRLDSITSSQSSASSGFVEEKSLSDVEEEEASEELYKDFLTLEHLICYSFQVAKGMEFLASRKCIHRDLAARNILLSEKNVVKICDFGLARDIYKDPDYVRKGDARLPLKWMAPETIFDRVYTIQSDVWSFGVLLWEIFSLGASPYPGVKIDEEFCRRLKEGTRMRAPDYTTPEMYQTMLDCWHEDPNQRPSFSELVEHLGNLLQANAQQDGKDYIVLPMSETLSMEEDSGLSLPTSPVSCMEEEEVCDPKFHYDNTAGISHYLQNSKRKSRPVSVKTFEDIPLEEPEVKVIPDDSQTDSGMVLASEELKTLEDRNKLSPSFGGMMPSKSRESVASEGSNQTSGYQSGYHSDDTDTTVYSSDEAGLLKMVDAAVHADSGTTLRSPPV
- Assay Name: FLK-1 ELISA (kinase activity of the FLK-1 receptor in FLK-1/NIH3T3 cells, VEGF stimulated)
- Format: cell-based
Report the value in % with no unit label.

Examples with answers:
>>> numeric_readout("COc1cc(C=C2C(=O)Nc3ccc(I)cc32)cc2c1OCO2")
-1.0
>>> numeric_readout("CNS(=O)(=O)c1ccc2c(c1)C(=Cc1ccc(-c3ccccc3Cl)o1)C(=O)N2")
8.8
>>> numeric_readout("COc1ccc2ccccc2c1C=C1C(=O)Nc2ccc(I)cc21")
13.8
>>> numeric_readout("COc1ccc(O)c(C=C2C(=O)Nc3ccc(Br)c(C)c32)c1")
-21.1
>>> numeric_readout("N#Cc1ccc(C=C2C(=O)Nc3ccc(S(=O)(=O)N4CCOCC4)cc32)cc1")
-45.2

For the next question, use this compound.
Could you share which Fik Kinase %Inhibition value was measured for O=C1Nc2c(Br)cc(Br)cc2C1=Cc1cc(O)c(O)c(Br)c1 ?
27.2
